target: CRAC channels (Homo sapiens (Human)); test: In-vitro CRAC channel inhibition assay in Jurkat cells (thapsigargin-induced calcium influx); format: cell-based
Where a name gives a salt, the structure may show the parent alone.
parameter: inhibition at 1 µM (%)

(a) O=C(Nc1ccc(-n2nc(C(F)(F)F)cc2C2CC2)nc1)c1ccccn1 [Example 109]
(b) Cc1noc(C)c1C(=O)Nc1ccc(-n2nc(C3CC3)cc2C2CC2)cc1 [Example 5]
(c) O=C(Nc1ccc(-n2nc(C(F)(F)F)cc2C2CC2)nc1)c1c(F)cccc1F [Example 108]
Arrange the 3 compounds by rising inhibition at 1 µM, starting with the smallest. Sort the labels as requested; that list is your answer. a, b, c

(A) CS(=O)(=O)c1cccc(C(=O)Nc2ccc(-n3nc(C(F)(F)F)cc3C3CC3)cc2)c1 [Example 63]
(B) O=C(Nc1c(F)cccc1F)c1ccc(-n2nc(C(F)(F)F)cc2C2CC2)c(F)c1 [Example 100]
(C) O=C(Nc1ccc(-n2nc(C3CC3)cc2C2CC2)nc1)c1cccnc1 [Example 46, dihydrochloride]
With regard to inhibition at 1 µM, arrange the entries in ascending order, please. Sort the labels as requested; that list is your answer. C, A, B

(I) O=C(Nc1ccc(-n2nc(C3CC3)cc2C2CC2)cc1)c1ccccc1 [Example 6]
(II) O=C(Nc1ccc(-n2nc(C(F)(F)F)cc2C2CC2)c(F)c1)c1cccnc1 [Example 89, hydrochloride]
(III) O=C(Nc1ccc(-n2nc(C3CC3)cc2C2CC2)c(F)c1)c1cccc(F)c1F [Example 32]
(IV) Cc1ncsc1C(=O)Nc1cnc(-n2nc(C(F)(F)F)cc2C2CC2)nc1 [Example 129]
With regard to inhibition at 1 µM, arrange the entries in ascending order, please. Sort the labels as requested; that list is your answer. IV, I, III, II
(IV: 28.3%, I: 41.3%, III: 63.6%, II: 100%)

(P) Cc1ncsc1C(=O)Nc1ccc(-n2nc(C3CC3)cc2C2CC2)c(F)c1 [Example 29]
(Q) O=C(Cc1ccncc1)Nc1ccc(-n2nc(C3CC3)cc2C2CC2)cc1 [Example 24, hydrochloride]
(R) O=C(Cc1ccncc1)Nc1ccc(-n2nc(C(F)(F)F)cc2C2CC2)nc1 [Example 118, hydrochloride]
(S) O=C(Nc1ccc(-n2nc(C3CC3)cc2C2CC2)c(F)c1)c1c(Cl)cncc1Cl [Example 127]
(T) Cc1ncsc1C(=O)N(C)c1ccc(-n2nc(C(F)(F)F)cc2C2CC2)cc1 [Example 54]
Falling order of inhibition at 1 µM, please. Sort the labels as requested; that list is your answer. P, S, Q, R, T

###

biological target: CRAC channels (Homo sapiens (Human), UniProt Q96D31); assay: In-vitro CRAC channel inhibition assay in NCI-H460 cancer cell line (Ca assay); format: cell-based; conditions: thapsigargin-induced calcium influx, NCI-H460 cells
Sequence (Q96D31 whole entry): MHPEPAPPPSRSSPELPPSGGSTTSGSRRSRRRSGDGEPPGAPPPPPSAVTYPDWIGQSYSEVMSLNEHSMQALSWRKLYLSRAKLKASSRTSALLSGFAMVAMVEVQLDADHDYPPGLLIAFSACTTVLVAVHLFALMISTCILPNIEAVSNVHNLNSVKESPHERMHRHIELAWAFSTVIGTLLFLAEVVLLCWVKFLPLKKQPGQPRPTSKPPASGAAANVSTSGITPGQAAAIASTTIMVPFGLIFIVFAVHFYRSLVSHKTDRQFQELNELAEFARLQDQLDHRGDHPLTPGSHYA
parameter: inhibition at 1 µM (%)

| mol | inhibition at 1 µM [%] |
| --- | --- |
| Cc1nnsc1C(=O)Nc1ccc(-n2nc(C3CC3)cc2C2CC2)cc1 | 93.2 |
| O=C(Nc1ccc(-n2nc(C3CC3)cc2C2CC2)cc1)c1ccccc1 | 86 |
| Cc1nc(C)c(C(=O)Nc2ccc(-n3nc(C(F)(F)F)cc3C3CC3)cc2)s1 | 100 |
| Cc1nnsc1C(=O)Nc1ccc(-n2nc(C(F)(F)F)cc2C2CC2)cc1 | 78.2 |
| O=C(Nc1ccc(-n2nc(C3CC3)cc2C2CC2)cc1)c1cccc(F)c1F | 86.8 |
| Cc1ncsc1C(=O)Nc1ccc(-n2nc(C3CC3)cc2C2CC2)cc1 | 100 |
| Cc1ncsc1C(=O)Nc1ccc(-n2nc(C(F)(F)F)cc2C2CC2)cc1 | 84.6 |

###

target: CRAC channels (Homo sapiens (Human), UniProt Q96D31); test: In-vitro CRAC channel inhibition assay in Jurkat cells (thapsigargin-induced calcium influx); type: cell-based
Counter-ions that a name gives are not always drawn.
parameter: inhibition at 1 µM (%)

| compound | inhibition at 1 µM / % |
| --- | --- |
| O=C(Nc1c(F)cccc1Cl)c1ccc(-n2nc(C(F)(F)F)cc2C2CC2)c(F)c1 [Example 128] | 100 |
| Cc1ncc(C(=O)Nc2ccc(-n3nc(C(F)(F)F)cc3C3CC3)cc2)c(C)n1 [Example 69] | 74.6 |
| O=C(Nc1ccc(-n2nc(C3CC3)cc2C2CC2)nc1)c1c(F)cccc1F [Example 45, hydrochloride] | 72.3 |

(P) Cc1ncsc1C(=O)Nc1ccc(-n2nc(C(F)(F)F)cc2C(F)F)cc1 [Example 126]
(Q) Cc1nnsc1NC(=O)Nc1ccc(-n2nc(C(F)(F)F)cc2C2CC2)cc1 [Example 75]
So which one has the bigger inhibition at 1 µM here, P or Q ? When you have decided, please share the label of that item. P
(P: 100%, Q: 0%)

###

biological target: CRAC channels (Homo sapiens (Human)); experiment: In-vitro CRAC channel inhibition assay in Jurkat cells (thapsigargin-induced calcium influx); type: cell-based
Structures can show the parent of a compound that is named as a salt.
parameter: inhibition at 1 µM (%)

Worked examples follow.
| compound | inhibition at 1 µM (%) |
| --- | --- |
| O=C(Nc1ccc(-n2nc(C(F)(F)F)cc2C2CC2)c(F)c1)c1ccncc1 [Example 90, hydrochloride] | 100 |
| O=C(Cc1ccncc1)Nc1ccc(-n2nc(C(F)(F)F)cc2C2CC2)cc1 [Example 73, hydrochloride] | 68 |
| O=C(Nc1ccc(-n2nc(C(F)(F)F)cc2C2CC2)nc1)c1ccncc1F | 88.7 |
| Cc1nnsc1C(=O)Nc1ccc(-n2nc(C(F)(F)F)cc2C2CC2)nc1 | 93 |
| Cc1nnsc1C(=O)Nc1ccc(-n2nc(C(F)(F)F)c(Cl)c2C2CC2)c(F)c1 | 100 |
| Cc1ncsc1NC(=O)Nc1ccc(-n2nc(C(F)(F)F)cc2C2CC2)cc1 | 92.3 |

(P) Cc1cccnc1C(=O)Nc1ccc(-n2nc(C(F)(F)F)cc2C2CC2)nc1
(Q) Cc1noc(C)c1C(=O)Nc1ccc(-n2nc(C3CC3)cc2C2CC2)c(F)c1
Field: lower recorded inhibition at 1 µM (choose P or Q ) When you have decided, please share the label of that item. Q
(Q: 35.1%, P: 78.4%)

(P) O=C(Cc1ccc(F)cc1)Nc1ccc(-n2nc(C3CC3)cc2C2CC2)cc1
(Q) O=C(Nc1ccc(-n2nc(C3CC3)cc2C2CC2)nc1)c1c(Cl)cncc1Cl [Example 50, hydrochloride]
(R) Cc1ncncc1C(=O)Nc1cnc(-n2nc(C(F)(F)F)cc2C2CC2)nc1
With regard to inhibition at 1 µM, arrange the entries in ascending order, please. Sort the labels as requested; that list is your answer. R, Q, P

(a) Cc1ncsc1NC(=O)c1ccc(-n2nc(C(F)(F)F)cc2C2CC2)cc1
(b) Cc1ccccc1NC(=O)c1ccc(-n2nc(C3CC3)cc2C2CC2)nc1
Field: lower recorded inhibition at 1 µM (choose a or b ) When you have decided, please share the label of that item. b
(b: 26.2%, a: 100%)

(P) Cc1ccccc1C(=O)Nc1ccc(-n2nc(C(F)(F)F)cc2C2CC2)c(F)c1
(Q) CS(=O)(=O)c1cccc(C(=O)Nc2ccc(-n3nc(C4CC4)cc3C3CC3)cc2)c1
Field: lower recorded inhibition at 1 µM (choose P or Q ) When you have decided, please share the label of that item. Q
(Q: 49.5%, P: 86.6%)

###

tested on: IL-2; assay: Inhibition of cytokine release in Human Whole Blood: IL-2; format: cell-based; conditions: Con A + PMA, 20 h, ELISA, read-out: IC 50 Human Whole Blood IL-2
parameter: IC50 (nM)

Worked examples follow.
| compound | study-target | IC50, nM |
| --- | --- | --- |
| C[C@]12C=CC(=O)C=C1CC[C@@H]1[C@@H]2[C@@H](O)C[C@@]2(C)[C@H]1CC[C@]2(O)C(=O)CO [Prednisolone, reference compound] | IL-2 | 77.2 |
| O=C(Nc1ccc(-n2nc(C(F)(F)F)cc2C2CC2)nc1)c1c(F)cccc1F | IL-2 | 138 |

(1) Cc1ncsc1C(=O)Nc1ccc(-n2nc(C(F)(F)F)cc2C2CC2)c(F)c1
(2) O=C(Nc1c(F)cccc1F)c1ccc(-n2nc(C(F)(F)F)cc2C2CC2)c(F)c1
So which one has the bigger IC50 here, 1 or 2 ? When you have decided, please share the label of that item. 1

###

target: CRAC channels (Homo sapiens (Human)); assay: In-vitro CRAC channel inhibition assay in Jurkat cells (thapsigargin-induced calcium influx); format: cell-based
Counter-ions that a name gives are not always drawn.
parameter: inhibition at 1 µM (%)

| compound | readout-number |
| --- | --- |
| Cc1ncncc1C(=O)Nc1ccc(-n2nc(C(F)(F)F)cc2C2CC2)nc1 | 15.4 |
| Cc1nnsc1C(=O)Nc1ccc(-n2nc(C3CC3)cc2C2CC2)nc1 [Example 38, hydrochloride] | 52.7 |
| Cc1ncsc1C(=O)Nc1ccc(-n2nc(C3CC3)cc2C2CC2)cc1 | 100 |
| O=C(Nc1ccc(-n2nc(C(F)(F)F)cc2C2CC2)nc1)c1ccccc1Cl [Example 105, hydrochloride] | 71.2 |

(A) O=C(Nc1ccc(-n2nc(C3CC3)cc2C2CC2)cc1)C1(c2ccccc2)CC1
(B) O=C(Cc1cccnc1)Nc1ccc(-n2nc(C3CC3)cc2C2CC2)cc1 [Example 23, hydrochloride]
(C) O=C(CN1CCNCC1)Nc1ccc(-n2nc(C3CC3)cc2C2CC2)cc1 [Example 25, hydrochloride]
(D) Cc1nc(C)c(C(=O)Nc2ccc(-n3nc(C4CC4)cc3C3CC3)nc2)s1
Falling order of inhibition at 1 µM, please. Sort the labels as requested; that list is your answer. A, B, C, D
(A: 78.4%, B: 53.8%, C: 29%, D: 12.6%)
